EXPERIMENTAL TARGET: Orexin receptor type 2 (Homo sapiens, UniProt O43614)
Sequence (O43614 whole entry): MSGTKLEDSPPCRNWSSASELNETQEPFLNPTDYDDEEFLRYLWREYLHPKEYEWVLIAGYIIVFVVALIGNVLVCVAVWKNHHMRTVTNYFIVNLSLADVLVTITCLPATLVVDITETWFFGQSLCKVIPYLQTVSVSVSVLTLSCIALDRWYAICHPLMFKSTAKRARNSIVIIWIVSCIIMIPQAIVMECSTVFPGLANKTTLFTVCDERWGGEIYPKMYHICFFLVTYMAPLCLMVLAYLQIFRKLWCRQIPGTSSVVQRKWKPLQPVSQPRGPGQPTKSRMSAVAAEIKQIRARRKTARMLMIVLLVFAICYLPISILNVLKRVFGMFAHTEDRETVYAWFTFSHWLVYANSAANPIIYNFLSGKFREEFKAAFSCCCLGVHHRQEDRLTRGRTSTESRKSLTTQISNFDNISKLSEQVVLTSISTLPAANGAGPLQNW
MEASURED METRIC: Ki

Answered examples (2):
SUBSTANCE SMILES	MEASURED METRIC	MEASUREMENT
Cc1ccc(-n2nccn2)c(C(=O)N2C[C@H](C#Cc3cnccc3O)CC[C@H]2C)c1	Ki	0.0075 µM
Cc1ccc(-n2nccn2)c(C(=O)N2C[C@H](C#Cc3ccncc3)CC[C@H]2C)c1	Ki	0.007 µM

Reported Ki, compound `Cc1ccc(-n2nccn2)c(C(=O)N2C[C@H](C#Cc3ccc(CO)cn3)CC[C@H]2C)c1` : ____
0.13 µM

Reported Ki, compound `Cc1ccc(-n2nccn2)c(C(=O)N2C[C@H](COc3ccc(F)cn3)CC[C@H]2C)c1` : ____
0.0002 µM
